Assay Target: D(2) dopamine receptor (Rattus norvegicus)
Sequence (P61169 whole entry): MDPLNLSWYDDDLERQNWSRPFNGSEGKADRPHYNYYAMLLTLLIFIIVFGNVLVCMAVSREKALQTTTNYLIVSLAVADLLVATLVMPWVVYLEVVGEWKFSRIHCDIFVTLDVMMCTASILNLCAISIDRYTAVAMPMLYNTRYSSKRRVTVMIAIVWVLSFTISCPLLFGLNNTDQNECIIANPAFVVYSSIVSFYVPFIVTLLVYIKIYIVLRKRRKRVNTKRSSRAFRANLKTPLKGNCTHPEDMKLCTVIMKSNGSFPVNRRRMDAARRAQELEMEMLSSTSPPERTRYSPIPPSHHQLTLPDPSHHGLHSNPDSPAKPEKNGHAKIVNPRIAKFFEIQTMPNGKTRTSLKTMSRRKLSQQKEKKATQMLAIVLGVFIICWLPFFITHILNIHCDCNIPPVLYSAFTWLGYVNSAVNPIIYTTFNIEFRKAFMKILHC
Assay Procedure: The affinity for the Dopamine receptor D2 was assessed by the inhibition of [3H]-spiperone binding in rat striatal membranes in vitro.
Catalogue of compounds with associated pIC50
Answer as the number alone; pIC50 is minus log10 of concentration in mol/L.

Compound: CCN1CCCC1CNC(=O)c1cccc(OC)c1OC (stereo not given)
Assay Target: D(2) dopamine receptor (Rattus norvegicus)
pIC50: 7.28

Inquiry: What does the record list as pIC50 for `CCN1CCC[C@H]1CNC(=O)c1cc(Br)cc(OC)c1OC` ?
Reply text: 8.92

Inquiry: What value of measured pIC50 is listed for CCN1CCCC1CNC(=O)c1cc(Br)ccc1OC (stereo not given) ?
Reply text: 7.34

Inquiry: Give its pIC50 value. Item: `COc1cc(Br)cc(C(=O)NC2CCN(Cc3ccccc3)CC2)c1OC`
Reply text: 8.30

----------
Assay Target: UniProtKB P61169
Assay Procedure: The affinity for the Dopamine receptor D2 was assessed by the inhibition of [3H]-spiperone binding in rat striatal membranes in vitro.
Type: cell membranes, Membrane
Response field label: string, one of Fulfilled (IC50 strictly below 0.01 µM) or Not fulfilled.

Inquiry: Report whether reported IC50 is lower than 0.01 µM (strictly) for `CCN1CCC[C@@H]1CNC(=O)c1cc(Br)cc(OC)c1OC`
Reply text: Not fulfilled

Inquiry: Dear reviewer, please state whether COc1cccc(C(=O)NC2CC3CCC(C2)N3Cc2ccccc2)c1OC (stereo unspecified) has IC50 strictly beneath 0.01 µM.
Reply text: Fulfilled

----------
Assay Target: UniProt:P61169
Assay Procedure: The affinity for the Dopamine receptor D2 was assessed by the inhibition of [3H]-spiperone binding in rat striatal membranes in vitro.
Entries and their pIC50
For clarity, pIC50 is expressed as the negative log10 of concentration in mol/L.

Inquiry: Quick one: pIC50 for CCN1CCCC1CNC(=O)c1cc(Br)cc(O)c1OC (centres undefined) ?
Reply text: 8.00

Inquiry: Give the measured pIC50 of CCN1CCCC1CNC(=O)c1cc(Br)cc(OC)c1O (centres undefined) .
Reply text: 5.09

Inquiry: Query: pIC50; subject: `CCN1CCC[C@H]1CNC(=O)c1cc(Br)cc2c1OCCO2`
Reply text: 7.34

Inquiry: Item CCN1CCCC1CNC(=O)c1cc(Br)c(OC)cc1OC (centres undefined) has what recorded pIC50?
Reply text: 7.36

Measured values drawn from ChEMBL document CHEMBL1124888 for this set.
